- Tested on: human embryonic kidney cells 293 (HEK293)
- procedure.details: Resazurin cytotoxicity assay, HEK 293
- setup.conditions: commercial compounds; unit from Table 8 head
Quick list: Minimum Toxicity Concentration HEK 293 per entry.
measure.name: Minimum Toxicity Concentration HEK 293 (µM)

Cc1c(C)c2cccnc2c2ncccc12 :: 0.1
CCCCCCN(CCCCCC)CCCCCC :: 50
Cc1ccc2ccc3ccc(C)nc3c2n1 [Neocuproine hemihydrate] :: 0.1
CCCCCCCCN(CCCCCCCC)CCCCCCCC :: 6
c1ccc(-c2ccccn2)nc1 :: 3
Cc1cnc2c(ccc3c(C)c(C)cnc32)c1C :: 0.1
c1cnc2c(c1)ccc1cccnc12 :: 50

----------
Reported Minimum Toxicity Concentration HepG2 values are given for each entry in this list.
- System: human hepatocellular carcinoma cells (Hep-G2)
- procedure.details: Resazurin cytotoxicity assay, HepG2
- setup.conditions: human, 4 days
- Experimental: To identify marine samples with activity against MRSA, 1434 compounds from the AIMS Bioresources Library (provided by the Queensland Compound Library, Brisbane, Australia, now called Compounds Australia) were screened in a resazurin cell viability assay. Toxicity of AIMS Extract Library. […] Then, resazurin (10 μL of 0.05% w/v) was added and after 4 h, fluorescence measured as described previously. The cell viability was calculated as percentage fluorescence relative to untreated cells.
measure.name: Minimum Toxicity Concentration HepG2

CCN(CC)CC :: >100 µM
NCc1ccccc1 :: >100 µM
c1ccc(CNCc2ccccc2)cc1 :: >100 µM

----------
- Test system: human hepatocellular carcinoma cells (Hep-G2)
- procedure.details: Resazurin cytotoxicity assay, HepG2
- setup.conditions: commercial compounds; unit from Table 8 head
measure.name: Minimum Toxicity Concentration HepG2 (µM)

Cc1c(C)c2cccnc2c2ncccc12 [5,6-Dimethyl-1,10-phenanthroline] :: 0.1
c1ccc(-c2ccccn2)nc1 [2,2′-Bipyridine] :: 3
c1cnc2c(c1)ccc1cccnc12 [1,10-phenanthroline] :: 0.1
Cc1ccc2ccc3ccc(C)nc3c2n1 [Neocuproine hemihydrate] :: 0.1

----------
- Test system: methicillin-resistant Staphylococcus aureus (MRSA)
- procedure.details: Resazurin bacterial inhibition assay (MIC), MRSA
- Assay type: cell-based
- setup.conditions: Staphylococcus aureus, MRSA; commercial compounds; 18 h, resazurin; read-out: Minimum Inhibitory Concentration MRSA
measure.name: MIC

c1ccc(CN(Cc2ccccc2)Cc2ccccc2)cc1 :: > 100 µM
c1ccc2ncccc2c1 :: > 100 µM
c1ccc(-c2ccccn2)nc1 :: > 100 µM
NCc1ccccc1 :: > 100 µM
c1ccc(CNCc2ccccc2)cc1 :: > 100 µM
C1CCC(NC2CCCCC2)CC1 :: > 100 µM
CCCCCCN :: > 100 µM
Cc1c(C)c2cccnc2c2ncccc12 :: 0.3 µM
c1cnc2ccc3ncccc3c2c1 :: 1.5 µM
Cc1ccnc2c1ccc1c(C)ccnc12 :: 0.3 µM
c1ccc2cnccc2c1 :: > 100 µM
c1ccc(-c2ccnc3c2ccc2c(-c4ccccc4)ccnc23)cc1 :: 0.09 µM
CCN(CC)CC :: > 100 µM
c1cnc2c(c1)ccc1cccnc12 :: > 100 µM

----------
- System: human embryonic kidney cells 293 (HEK293)
- procedure.details: Resazurin cytotoxicity assay, HEK 293
- setup.conditions: human, 4 days
- Experimental: To identify marine samples with activity against MRSA, 1434 compounds from the AIMS Bioresources Library (provided by the Queensland Compound Library, Brisbane, Australia, now called Compounds Australia) were screened in a resazurin cell viability assay. Toxicity of AIMS Extract Library. […] Then, resazurin (10 μL of 0.05% w/v) was added and after 4 h, fluorescence measured as described previously. The cell viability was calculated as percentage fluorescence relative to untreated cells.
measure.name: Minimum Toxicity Concentration HEK 293

c1ccc(CNCc2ccccc2)cc1 :: >100 µM
NCc1ccccc1 :: >100 µM
CCN(CC)CC :: >100 µM

----------
Minimum Toxicity Concentration HEK 293 values for the compounds below.
- System: human embryonic kidney cells 293 (HEK293)
- procedure.details: Resazurin cytotoxicity assay, HEK 293
- setup.conditions: commercial compounds; unit from Table 8 head
measure.name: Minimum Toxicity Concentration HEK 293

CCCCN(CCCC)CCCC :: >100 µM
CCCCCCN :: >100 µM
c1cnc2ccc3ncccc3c2c1 :: >100 µM
CCCCCCCCNCCCCCCCC :: >100 µM
c1ccc(CN(Cc2ccccc2)Cc2ccccc2)cc1 :: >100 µM
C1CCC(NC2CCCCC2)CC1 :: >100 µM
c1cnc2c(c1)ccc1ncccc12 :: >100 µM

Values compiled from paper PMC8004798.
